// provenance: PubChem BioAssay AID2060626

Tested on: 168753-222-R-J1-PDC complex spheroid viability;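 also: viability measured after seven days of drug exposure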
Assay: Anticancer human tumor 168753-222-R-J1-PDC patient-derived bladder carcinoma cell line growth inhibition [CLK]
Details: curve of first compound; second compound 0.316 µM
parameter: IC50 (nM)
The reply should contain only the number, in nM.

// worked examples, IC50 included
>>> recordedmeasurement("CCCS(=O)(=O)Nc1ccc(F)c(C(=O)c2c[nH]c3ncc(-c4ccc(Cl)cc4)cc23)c1F + CNC(=O)c1ccc(Nc2nc(OC3CCCC3)c3c(-c4ccc5nc(C)oc5c4)c[nH]c3n2)c(OC)c1")
9850
>>> recordedmeasurement("COC1C=CCC(C)C(C)S(=O)(=O)NC(=O)c2ccc3c(c2)N(CC2CCC21)CC1(CCCc2cc(Cl)ccc21)CO3 (stereo not given) + CNC(=O)c1ccc(Nc2nc(OC3CCCC3)c3c(-c4ccc5nc(C)oc5c4)c[nH]c3n2)c(OC)c1")
203
>>> recordedmeasurement("NC(=O)C(=Cn1cnc(-c2cc(C(F)(F)F)cc(C(F)(F)F)c2)n1)c1cncnc1 + CNC(=O)c1ccc(Nc2nc(OC3CCCC3)c3c(-c4ccc5nc(C)oc5c4)c[nH]c3n2)c(OC)c1")
142

# evaluate next
Q) Could you tell me which IC50 is on file for Nc1ccccc1NC(=O)c1ccc(CNC(=O)OCc2cccnc2)cc1 + CNC(=O)c1ccc(Nc2nc(OC3CCCC3)c3c(-c4ccc5nc(C)oc5c4)c[nH]c3n2)c(OC)c1 ?
A) 4110
